B1: Connector enhancer of kinase suppressor of ras 2, residues 9 to 71; numbered along this chain, Q8WXI2 (parent)
chain: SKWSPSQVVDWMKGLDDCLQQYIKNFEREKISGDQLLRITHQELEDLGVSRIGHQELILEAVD

Variants of: B1
assayExplanation: abundance fitness (aPCA) (normalised: wild type 0, dead -1); higher = more abundant; growth selection in yeast, the domain comes from the species named
conditions: Homo sapiens
# abundance fitness >= -0.5 gives Fulfilled, anything below gives Not fulfilled

I31H	Not fulfilled

## Task Threshold query (abundance fitness >= -0.5) on L36N
## Result Not fulfilled

## Task Hello, I need to know if E56I has measured abundance fitness not below -0.5. Thanks!
## Result Fulfilled

Every entry's value here was drawn from the Human Domainome abundance scans (Beltran et al. 2025).
